Data provenance is the supplement of paper PMC10567573.

B1: STX5 (parent)
chain: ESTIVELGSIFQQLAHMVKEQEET

variants of: B1; assay: protein stability index of a GFP-peptide fusion (GPS, HEK-293T) (PSI 1-6); higher = more stable; settings: c terminus: a fixed tail appended;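 also: lentivirally expressed fusions sorted by FACS into six bins by GFP to DsRed ratio, PSI derived from sequencing read proportions per bin multiplied by bin number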
Below: a set of entries, each annotated with reported protein stability index.

sequence-code | protein stability index
EDTIVELGSIFQQLAHMVKEQEET | 2.47
ESTIVELGSIFQQLAHMVKEQKET | 2
ESTIVEDGSIFQQLAHMVKEQEET | 5.12
ESTIVELGSIFQQLAHYVKEQEET | 3.29
ESTIVGLGSIFQQLAHMVKEQEET | 2.75
ESCIVELGSIFQQLAHMVKEQEET | 2.02
ESTIQELGSIFQQLAHMVKEQEET | 2.07
ESTINELGSIFQQLAHMVKEQEET | 2.04
ESTIVELGSIWQQLAHMVKEQEET | 2.83
ESTIVELGSIFQYLAHMVKEQEET | 2.37
ESTIVELGSIFQGLAHMVKEQEET | 4.12
ESTIVNLGSIFQQLAHMVKEQEET | 3.14
ESTSVELGSIFQQLAHMVKEQEET | 2.64
ESTIVELGSIFQQLAHMVKEQEST | 1.23
ESTIVELGSIFQQLAHRVKEQEET | 3
ESTIVELGSIFQKLAHMVKEQEET | 2.8
ESTIVELGSIFQELAHMVKEQEET | 2.57
ESTIGELGSIFQQLAHMVKEQEET | 2.79
ESTIVELGSIFQQLAYMVKEQEET | 1.67
ESTIVELGSIFQQLLHMVKEQEET | 1.76
ESTIVELGSIFQQLAHMVKEEEET | 3.05
ESTIVELGSIFTQLAHMVKEQEET | 1.93
ESTIVELGSIFQQLCHMVKEQEET | 2.21
ESTIVELGMIFQQLAHMVKEQEET | 1.87
ESTIVELGSIFQQLAHMVKEDEET | 2.4
ESTAVELGSIFQQLAHMVKEQEET | 2.27
ESTIVELGSIFQQLAHMVGEQEET | 2.76
ESTIVELGSITQQLAHMVKEQEET | 4.81
ESTIVELGSIFQQCAHMVKEQEET | 4.42
ESAIVELGSIFQQLAHMVKEQEET | 2.96
ESNIVELGSIFQQLAHMVKEQEET | 2.31
ESTIVPLGSIFQQLAHMVKEQEET | 2.75
ESTIVELGSIFWQLAHMVKEQEET | 1.32
ESTIVELGHIFQQLAHMVKEQEET | 2.64
ESTIVELGSIFQQLAHMVKEQDET | 1.97
EWTIVELGSIFQQLAHMVKEQEET | 2.19
ESTIVELGSIFQQLAHMVKNQEET | 1.53
ESTIVELGSSFQQLAHMVKEQEET | 4.89
ESTIVELGSIFQQLAHMVKYQEET | 3.75
ESTIVELPSIFQQLAHMVKEQEET | 3.99
ESTIVTLGSIFQQLAHMVKEQEET | 1.91
ESTIVELGSIFRQLAHMVKEQEET | 2.4
ESTILELGSIFQQLAHMVKEQEET | 2.04
ESTIVELGSIFQQLAHMVKRQEET | 1.76
ESTIVELGSIFQQLHHMVKEQEET | 3.15
ESTIVELGSIFQQLAHMWKEQEET | 2.22
ESTISELGSIFQQLAHMVKEQEET | 2.46
ENTIVELGSIFQQLAHMVKEQEET | 1.97
ESTIVELGSIFQQLGHMVKEQEET | 3.91
ESTIVELGSIFQQLAHMVKEQENT | 1.47
ESHIVELGSIFQQLAHMVKEQEET | 2.4
ESTIVECGSIFQQLAHMVKEQEET | 3.74
ESVIVELGSIFQQLAHMVKEQEET | 2.56
ESTIVDLGSIFQQLAHMVKEQEET | 1.63
ESLIVELGSIFQQLAHMVKEQEET | 1.85
ESTIVELGSIFQQLAHMVKEQEEL | 1.5
ESTIVELGSVFQQLAHMVKEQEET | 3.1
ESTIVELGSIFQQLRHMVKEQEET | 2.67
ESTIVELFSIFQQLAHMVKEQEET | 2.06
ESPIVELGSIFQQLAHMVKEQEET | 3.03
ESTIVELGSIFQQLAHMVKEKEET | 2.6
ESTIVELGSIFQQLVHMVKEQEET | 2.24
ESTIVELGSIIQQLAHMVKEQEET | 2.27
ESTIEELGSIFQQLAHMVKEQEET | 2.12
ESTIVELGSIFQQLAHMYKEQEET | 2.44
ESTIVELGSIFQQLAHMVKEQEVT | 3.06
ESTIVEHGSIFQQLAHMVKEQEET | 4.9
ESTIVCLGSIFQQLAHMVKEQEET | 2.06
ESTIVEVGSIFQQLAHMVKEQEET | 4.25
ESTIVELGSIFQQLAHMVPEQEET | 4.08
ESTIVELGSIFQQLAHMGKEQEET | 4.6
ESDIVELGSIFQQLAHMVKEQEET | 2.04
ESTIVELGSIFQQVAHMVKEQEET | 2.81
ESTIVEIGSIFQQLAHMVKEQEET | 2.16
ESTIVELGSIFQQLAHMVKEQEYT | 1.2
ESTIVELGSIFQLLAHMVKEQEET | 1.54
ESTIVELGSIFQQLAHMIKEQEET | 2.41
YSTIVELGSIFQQLAHMVKEQEET | 2.49
ESTIVELGSIFQQLAHMVKEQWET | 1.53
ESTIVELGSIFQILAHMVKEQEET | 1.44
ESTIVELGSIFQQLTHMVKEQEET | 3.66
ESTIVELGSIFFQLAHMVKEQEET | 2.26
ESTIVELGSIFQQLASMVKEQEET | 2.36
